Below are pIC50 values measured for JAK3 (a.a. 781-1124) (Homo sapiens (Human)).
pIC50: −log10 of the molar value. Structures can show the parent of a compound that is named as a salt.
metric name: pIC50

INSERT INTO assay_data (compound, observed_measurement) VALUES
  ('CCOC(=O)c1cnc2[nH]ccc2c1N[C@H]1CCC[C@H](CCC#N)C1 (racemic) [Example 134]', '≥ 8.00'),
  ('C[C@@H]1CCN(C(=O)CC#N)C[C@@H]1Nc1c(C(=O)OC(C)(C)C)cnc2[nH]ccc12 [Example 119]', '6.00 to 7.00'),
  ('N#CCC(=O)N1CCC[C@@H](Nc2c(C(=O)O)cnc3[nH]ccc23)C1 [Example 121, trifluoroacetic acid Salt]', '6.00 to 7.00'),
  ('CCOC(=O)c1cnc2[nH]ccc2c1N(C)[C@@H]1CC[C@@H](O)C1 (single isomer, unassigned) [Example 68B]', '7.00 to 8.00'),
  ('CCOC(=O)c1cnc2[nH]ccc2c1NC1CCC(CCC#N)C1 (single isomer, unassigned; stereoisomer 1) [Example 154]', '7.00 to 8.00'),
  ('CCOC(=O)c1cnc2[nH]ccc2c1NC1CCCC(CCC#N)C1 (stereo not shown) [Example 132]', '≥ 8.00'),
  ('CCOC(=O)c1cnc2[nH]ccc2c1NC1CCC(CCC#N)C1 (mixture of isomers) [Example 153]', '≥ 8.00');
